Ref: patent US10244779B2

The entries below are paired with their reported % Remaining @ 4 hrs.
Experiment: Photostability test of sweet enhancers with/without photostabilizers in Q-Sun Xenon Test Chamber
Details: buffer, 4 h, 100 ppm, pH 2.8
Protocol: Aqueous buffer solution at pH 7.1 contains 50 mM potassium dihydrogen phosphate and ˜32 mM sodium hydroxide (solutions of 1.0 M hydrochloric acid and 1.0 M sodium hydroxide are used to adjust pH). […] The samples are analyzed using an Agilent 1100 LC/MSD equipped with a quaternary pump and a diode-array detector (DAD). […] The peak areas from the DAD chromatograms are used for quantitation for stabilizers with concentration at 250 uM or higher. […]
Give the number; % is assumed, so skip it.

Look over these answered cases.
# SMILES_REPR, RECORDED_NUMBER
measured = [
    ("O=c1ccc2ccc(O)c(O)c2o1", 98.13),
    ("COc1cc2ccc(=O)oc2cc1O", 100.07),
    ("O=C(O)/C=C/c1ccc(O)c(O)c1", 98.74),
]

--- query ---
% Remaining @ 4 hrs reported for this compound `COc1cc(/C=C/C(=O)O)ccc1O` : 93.43
